Test system: ACHN
assay_remarks: NCI tumour cell line growth inhibition, 48 h
Calls of active or inactive are those of the source. Rule as the data show it: active = GI50 up to about 1.1 µM and inactive = higher.
Classes used: active, inactive

| compound | classification |
| --- | --- |
| CCOC(=O)c1ccc(N(C)Cc2cnc3nc(N)nc(N)c3n2)cc1 | inactive |
| O=C(O)[C@@H]1C2CC([C@@H]1C(=O)O)[C@H](N1C(=O)CCC1=O)[C@@H]2Br (stereo partly drawn) | inactive |
| S=c1sc2c(Cl)nc(Cl)nc2n1-c1ccccc1 | inactive |
| NCCC1(N)CCNCC1 | inactive |
| O=[N+]([O-])c1nccn1COCCBr | inactive |
| CN1C(=O)C(CCO)(C(C)(C)C)c2ccccc21 (stereo not drawn) | inactive |
| CCCCP1(=O)C=CC(Cl)=C(C)C1 (stereo not drawn) | inactive |
| CCCCOC(=O)NC(Nc1ccc(S(=O)(=O)Nc2ccc(OC)nn2)cc1)(C(F)(F)F)C(F)(F)F | inactive |
| COc1cc(/C=C(\C#N)c2ccccn2)cc(Br)c1O | inactive |
| CCCCCCCC/C=C\CCCCCCCC(=O)OC[C@]1(CO)CCC(=O)O1 | inactive |
| COc1cc(/C=C2\[C@H]3c4c(c(OC)c(C)c(OC)c4OC)C[C@@H](C(=O)N2Cc2ccccc2)N3C(=O)OCC(C)C)c(OC)c(C)c1OC | inactive |
| CCOC(=O)NC(Nc1cccc(C(F)(F)F)c1)(C(F)(F)F)C(F)(F)F | inactive |
| COc1ccc(C2C(C)C(=O)C(C)C(c3ccc(OC)cc3)N2N=O)cc1 (stereo not drawn) | inactive |
| C=CCc1cc(OC)c2c(c1)C(OC)CC(c1ccc(OC)c(OC)c1)O2 (stereo not drawn) | inactive |
| CC1(C)CC2=NC(SSC3=C(C#N)C(c4ccc(Br)cc4)C4=C(O)CC(C)(C)CC4=N3)=C(C#N)C(c3ccc(Br)cc3)C2=C(O)C1 (stereo not drawn) | inactive |
| O=C(CC1(O)C(=O)Nc2ccccc21)c1ccc(Cl)c(Cl)c1 (stereo not drawn) | inactive |
| Cc1oc2c(c1C)S(=O)(=O)C(C#N)=C(c1ccccc1)N2 | inactive |
| CCn1c2c(c3ccccc31)[C@@H](c1ccc(Cl)cc1)CC1C(=O)N(c3ccccc3)C(=O)C21 (stereo partly drawn) | inactive |
| N=C(N)NCCCC(=O)O | inactive |
| CCOc1ccccc1/N=C(/NC(=O)CC)SC | inactive |
| C=C1CC2CC(O)CC(C1)C2 (stereo not drawn) | inactive |
| CSC(=N\c1ccccc1)/N=C(\SCc1ccccc1)N(C)C | active |
| c1ccc(-c2cn3c(nc4ccccc43)c(-c3ccccc3)n2)cc1 | inactive |
